# credit: patent US12577217B2

Would you mind telling me the reported pIC50 of each entry?
Target: recombinant human 15-PGDH (Homo sapiens)
Construct: purchased R&D Systems
Sequence (P15428 whole entry): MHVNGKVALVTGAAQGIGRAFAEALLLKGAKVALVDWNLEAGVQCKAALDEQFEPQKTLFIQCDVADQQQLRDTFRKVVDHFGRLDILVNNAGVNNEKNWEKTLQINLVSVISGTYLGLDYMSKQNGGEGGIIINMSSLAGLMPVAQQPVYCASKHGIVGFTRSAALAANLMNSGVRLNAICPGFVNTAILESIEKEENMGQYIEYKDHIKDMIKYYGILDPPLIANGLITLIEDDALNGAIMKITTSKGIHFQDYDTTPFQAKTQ
Assay: 15-PGDH enzyme inhibition test
Type: biochemical
Details: 4 nM recombinant human 15-PGDH, 30 μM PGE2, 1 mM NAD+, 60 minutes after starting the reaction; read-out: IC50 Value
pIC50: −log10 of the molar value.

CN1Cc2cc(N3CCOc4cc(C(=O)N5CCC(F)(F)CC5)cnc43)ccc2C1=O | > 8.00

Give pIC50 for all molecules that follow.
1. O=C(O)c1ccccc1N1CCCc2cc(C(=O)N3CCCCC3)cnc21
2. O=C(O)c1ccc(N2CCOc3c2ccc(C(=O)N2CCCCC2)c3C2CC2)cc1
3. COCCN1Cc2cc(N3CCOc4cc(C(=O)N5CCC(F)(F)CC5)cnc43)ncc2C1=O

(A)
["7.00 to 8.00", "> 8.00", "7.00 to 8.00"]
